target: ATP-dependent Clp protease proteolytic subunit (Bacillus subtilis (strain 168)); test: qHTS Assay for Activators of ClpP; also: the source files actives as falling curves though it sought activators and does not explain the sign; nearly all actives have a fitted effect of over 65% in size; conditions: purified B. subtilis ClpP, FRET peptide cleavage, 20 min; series mostly up to 57.5 µM
About 6,400 (1.9%) of roughly 340,000 compounds were called active. Roughly 4% stayed inconclusive and do not appear here. Calls follow the shape of the dose curve; as a rule, active = well fitted falling curve with a large enough effect; inconclusive = small, poorly fitted or top-dose-only effect; inactive = no such curve, though single readings can be large or run the other way. The entries come from a sample that favours actives as a whole.
Result category, one only: true (active), false (inactive)

Short answer needed: outcome of this test for OCC(O)C(O)C(O)C(O)C=Nc1ccc(/C=C/c2ccnc3ccccc23)cc1 (stereo not given) ? false

Status in this test for CC(C(=O)O)N1C(=O)c2cccc3cccc1c23 (stereo not given) ? false

Could you kindly confirm the outcome this assay logged for O=C1c2cccc3cccc(c23)N1CN1CCN(c2ccccn2)CC1 ? false

Give the logged outcome of this assay for the following molecule: CCOc1ccc2[nH]c(=O)c(C(c3nnnn3CCOC)N3CCOCC3)cc2c1 (stereo not given) true

What call does the record list for CCOC(=O)[C@]12CCC=C1N(Cc1ccco1)C(=O)[C@H](CC(=O)N1CCSCC1)C2 ? false

I would be grateful if you could indicate the recorded call for CSCCC(c1nnnn1Cc1ccccc1)N1CCN(C/C=C/c2ccccc2)CC1 (stereo not given) . false

So what was the verdict on COc1ccc(N2C(=O)c3cccc4cccc(c34)C2=O)nn1 in this test? true

Record request — test call for COc1ccc(N2CCN(C(c3cc4ccc(C)cc4[nH]c3=O)c3nnnn3C3CCCC3)CC2)cc1 (stereo not given) false

Hello, I am checking results. What call was entered for CCOC(=O)CSC1=Nc2ccccc2C2=NC(CCC(=O)NCc3ccc(F)cc3)C(=O)N12 (stereo not given) ? false

Lab log entry: COCCn1nnnc1C(c1ccccc1Cl)N1CCN(c2ccccc2OC)CC1 (stereo not given) — outcome as called in the assay? false
